Values from PubChem BioAssay (Tox21)

# tgt: Estrogen receptor (Homo sapiens)
# test: qHTS assay to identify small molecule antagonists of the estrogen receptor alpha (ER-alpha) signaling pathway (AID 743069)
# assayConditions: HEK293 ER-alpha-UAS-bla, beta-lactamase ratio, antagonist mode; series mostly up to 69.4 µM
Results filed as inconclusive are left out. Active and inactive are the calls of the source. Calls follow the shape of the dose curve; as a rule, active = well fitted curve in the direction sought with a large enough effect in the signal ratio in the repeat runs (not every such curve was filed as active); inconclusive = weak or mixed curves, or effect the other way; inactive = no such curve, though single readings can be large or run the other way; the % refers to the signal ratio.
assayMetric: outcome

Answered examples (8):
CCCCCC=O: inactive
[Na+]: inactive
O=Cc1ccccc1C=O: inactive
CCCN1C=CN(C)C1: inactive
C/C=C/C(=O)N(CC)c1ccccc1C: inactive
C1CN(SSN2CCOCC2)CCO1: inactive
CCCCCCC(C)O (stereo unspecified): inactive
Cc1ccc(C(C)(C)C)cc1: inactive

// query Observed outcome on Estrogen receptor (Homo sapiens) for `COC(=O)CC(=O)OC` , please.
// result inactive

// query Under Estrogen receptor (Homo sapiens): outcome value of `Cc1ccc(N)c([N+](=O)[O-])c1` ?
// result inactive

// query Give Estrogen receptor (Homo sapiens) outcome for `CC(C)[N+](C)(CCOC(=O)C1c2ccccc2Oc2ccccc21)C(C)C`
// result inactive

// query Lookup: outcome / Estrogen receptor (Homo sapiens) / `Cc1ccc(S(=O)(=O)NCl)cc1`
// result inactive

// query GET /values?readout=outcome&system=Estrogen receptor (Homo sapiens)&item= `C=C[Si](OCCOC)(OCCOC)OCCOC`
// result inactive

// query Query for Estrogen receptor (Homo sapiens): what outcome does the record show for `CCCCCCCCCCCCO` ?
// result inactive

// query Provide value of outcome for this record tested with Estrogen receptor (Homo sapiens): `CN(C)/N=N/c1nc[nH]c1C(N)=O`
// result inactive

// query Write down the reported outcome of `c1ccc2ncccc2c1` , test system: Estrogen receptor (Homo sapiens).
// result inactive
